Test system: Sarcoma 180 Tumor
Type: in vivo, albino mice
run.conditions: 200 mg/kg × 8, ip
observed.property: Percent Inhibition of tumor growth (%)
Numbers only, in %.

{"columns": ["compound", "Percent Inhibition of tumor growth, %"],
 "data": [
  ["C[C@H]1O[C@@H](n2cc(F)c(=O)[nH]c2=O)[C@H](O)[C@@H]1O [5'-Deoxy-5-Fluorouridine]", 88]
]}

Look at each compound and report its Percent Inhibition of tumor growth.
1. C[C@H]1O[C@@H](n2cc(F)c(N)nc2=O)[C@H](O)[C@@H]1O [5'-Deoxy-5-Fluorocytidine]
2. C[C@H]1O[C@@H](n2ccc(=O)[nH]c2=O)[C@H](O)[C@@H]1O [5'-Deoxyuridine, reference compound]
3. C[C@H]1O[C@@H](n2cc(F)c(=O)[nH]c2=O)C[C@@H]1O [2',5'-Dideoxy-5-Fluorouridine, reference compound]

Found:
1: 93; 2: 9; 3: 68
